Biological target: T1, CXCL12 (CXC Ligand 12) (UniProt O62657 22-89)
T1 construct: mature; Untagged in BLI and NMR; CXCL12-His6 was used at 1 µM on the HMGB1 SPOT peptide arrays; also called CXCL12A-c021, wt 1-67, no tag; CXCL12-His6
T1 sequence (P48061 22-89): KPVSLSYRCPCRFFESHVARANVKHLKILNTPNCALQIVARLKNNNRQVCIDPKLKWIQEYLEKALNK
Assay: BLI, biotinylated HMGB1 construct on streptavidin sensor, CXCL12 0-150 µM in solution; kinetics rates derived from interferogram
assay.endpoint: koff (s⁻¹)

binder="FR-HMGB1 Box B 89-174 (full HMG Box with flanking regions) (ligand, biotinylated in BLI and NMR, also called complete Box B; not shown: C-terminal biotinylation tag) SMKDPNAPKRPPSAFFLFCSEYRPKIKGEHPGLSIGDVAKKLGEMWNNTAADDKQPYEKKAAKLKEKYEKDIAAYRAKGKPDAAKKGV" uom=s⁻¹ measured_value=0.159
